- TESTED TARGET: UniProt Q9UBN7
- Sequence (Q9UBN7 whole entry): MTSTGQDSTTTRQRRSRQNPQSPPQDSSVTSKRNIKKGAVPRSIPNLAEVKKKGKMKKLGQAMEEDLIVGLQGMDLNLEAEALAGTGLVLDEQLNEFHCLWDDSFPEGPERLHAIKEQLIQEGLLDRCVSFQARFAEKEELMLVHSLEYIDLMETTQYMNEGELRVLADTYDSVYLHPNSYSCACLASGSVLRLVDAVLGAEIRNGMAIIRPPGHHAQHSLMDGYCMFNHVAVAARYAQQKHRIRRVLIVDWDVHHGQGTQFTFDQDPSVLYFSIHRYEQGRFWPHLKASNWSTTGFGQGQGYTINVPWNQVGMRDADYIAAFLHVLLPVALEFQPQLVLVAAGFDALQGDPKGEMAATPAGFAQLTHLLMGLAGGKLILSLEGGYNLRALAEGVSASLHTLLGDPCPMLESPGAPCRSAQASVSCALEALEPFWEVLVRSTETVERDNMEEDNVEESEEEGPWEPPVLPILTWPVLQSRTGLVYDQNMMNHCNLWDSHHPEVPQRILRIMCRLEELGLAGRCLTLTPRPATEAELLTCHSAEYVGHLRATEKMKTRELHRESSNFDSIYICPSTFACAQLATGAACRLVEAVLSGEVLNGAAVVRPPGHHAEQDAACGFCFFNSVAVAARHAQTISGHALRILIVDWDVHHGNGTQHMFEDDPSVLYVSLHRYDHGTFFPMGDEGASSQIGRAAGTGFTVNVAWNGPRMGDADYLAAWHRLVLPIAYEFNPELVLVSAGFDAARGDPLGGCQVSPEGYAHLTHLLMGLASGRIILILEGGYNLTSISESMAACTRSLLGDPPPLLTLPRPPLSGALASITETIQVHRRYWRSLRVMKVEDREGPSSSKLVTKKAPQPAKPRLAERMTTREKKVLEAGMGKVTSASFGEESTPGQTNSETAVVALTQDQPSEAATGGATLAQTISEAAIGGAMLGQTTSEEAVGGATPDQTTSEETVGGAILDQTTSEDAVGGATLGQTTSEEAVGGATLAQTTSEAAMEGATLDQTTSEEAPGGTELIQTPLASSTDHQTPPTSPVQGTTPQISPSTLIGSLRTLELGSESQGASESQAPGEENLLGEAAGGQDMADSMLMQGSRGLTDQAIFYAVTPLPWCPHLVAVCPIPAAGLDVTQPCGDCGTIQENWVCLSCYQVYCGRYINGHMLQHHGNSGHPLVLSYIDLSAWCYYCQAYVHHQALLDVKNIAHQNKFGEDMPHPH
- ASSAY REMARKS: Inhibition of recombinant full length HDAC6 (unknown origin) using Ac-peptide-AMC as substrate at 100 nM after 1 hr by fluorescence assay relative to control
Label 1 when inhibition is at or above 50%; otherwise label 0.

Enquiry: Threshold query (inhibition >= 50%) on Cc1ccc(CN2CCC(c3noc(CN(C)c4ncc(/C=C/C(=O)NO)cn4)n3)CC2)cc1
Return: 1

Enquiry: Threshold query (inhibition >= 50%) on Cc1ccc(CN2CCC(c3noc(COc4ccc(CCC(=O)NO)cc4)n3)CC2)cc1
Return: 0

Enquiry: Threshold query (inhibition >= 50%) on CCCN1CCC(c2noc(COc3ccc(CCC(=O)NO)cc3)n2)CC1
Return: 0

Enquiry: Threshold query (inhibition >= 50%) on O=C(/C=C/c1ccc(OCc2nc(C3CCN(Cc4cccc(F)c4)CC3)no2)cc1)NO
Return: 1

Enquiry: Threshold query (inhibition >= 50%) on CN(Cc1nc(C2CCN(Cc3ccc(C#N)cc3)CC2)no1)c1ncc(C(=O)NO)cn1
Return: 0

Enquiry: Threshold query (inhibition >= 50%) on C=CCN1CCC(c2noc(COc3ccc(/C=C/C(=O)NO)cc3)n2)CC1
Return: 1

Enquiry: Threshold query (inhibition >= 50%) on O=C(/C=C/c1ccc(OCc2nc(C3CCN(Cc4ccccc4F)CC3)no2)cc1)NO
Return: 1

Enquiry: Threshold query (inhibition >= 50%) on CN(Cc1nc(C2CCN(Cc3ccc(F)cc3F)CC2)no1)c1ncc(C(=O)NO)cn1
Return: 1

Enquiry: Threshold query (inhibition >= 50%) on COc1ccc(CN2CCC(c3noc(COc4ccc(/C=C/C(=O)NO)cc4)n3)CC2)cc1
Return: 1

Enquiry: Threshold query (inhibition >= 50%) on CCCN1CCC(c2noc(COc3ccc(/C=C/C(=O)NO)cc3)n2)CC1
Return: 1

Enquiry: Threshold query (inhibition >= 50%) on CN(Cc1nc(C2CCN(Cc3ccc(C(F)(F)F)cc3)CC2)no1)c1ncc(C(=O)NO)cn1
Return: 0

Enquiry: Threshold query (inhibition >= 50%) on Cc1cccc(CN2CCC(c3noc(COc4ccc(/C=C/C(=O)NO)cc4)n3)CC2)c1
Return: 1

Enquiry: Threshold query (inhibition >= 50%) on Cc1cccc(CN2CCC(c3noc(CN(C)c4ncc(C(=O)NO)cn4)n3)CC2)c1
Return: 1

Enquiry: Threshold query (inhibition >= 50%) on O=C(/C=C/c1ccc(OCc2nc(C3CCN(Cc4ccc(Br)cc4)CC3)no2)cc1)NO
Return: 1

Enquiry: Threshold query (inhibition >= 50%) on Cc1ccc(CN2CCC(c3noc(COc4ccc(/C=C/C(=O)NO)cc4)n3)CC2)cc1
Return: 1

Enquiry: Threshold query (inhibition >= 50%) on C=CCN1CCC(c2noc(COc3ccc(CCC(=O)NO)cc3)n2)CC1
Return: 0

Enquiry: Threshold query (inhibition >= 50%) on O=C(CCc1ccc(OCc2nc(C3CCN(Cc4ccccc4)CC3)no2)cc1)NO
Return: 0

Enquiry: Threshold query (inhibition >= 50%) on O=C(/C=C/c1ccc(OCc2nc(C3CCN(Cc4ccccc4)CC3)no2)cc1)NO
Return: 1

Enquiry: Threshold query (inhibition >= 50%) on CN(Cc1nc(C2CCN(Cc3ccccc3F)CC2)no1)c1ncc(C(=O)NO)cn1
Return: 0

Values compiled from ChEMBL document CHEMBL4364248.
